Answer each item with its documented GI50.
System: OVCAR-4
RUN_DESCRIPTION: NCI tumour cell line growth inhibition, 48 h
Calls of active or inactive are those of the source. No stated cut-off is given here; in the data, active = GI50 up to about 1.1 µM and inactive = higher.

So, N#C/C(=C\c1ccc(Cl)cc1)c1nc(-c2cc3ccccc3oc2=O)cs1 ? Its GI50 was 33.5 µM (inactive)

Summary for this molecule, Cn1cc(NC(=O)c2cc(NC(=O)CCCCCCCC(=O)Nc3cc(C(=O)Nc4cc(C(=O)NCCC(=N)N)n(C)c4)n(C)c3)cn2C)cc1C(=O)NCCC(=N)N : GI50 is 46.1 µM (inactive)

For reference, reported GI50 for CCOC(=O)C(NCc1ccccc1)(NC(=O)c1ccccc1)C(F)(F)F (stereo not given) stands at 45.3 µM (inactive)

The molecule listed as Nc1nccc(-c2c[nH]c3cc(Br)ccc23)n1 shows GI50 equal to 48.9 µM (inactive)

Record CCOC(=O)/C(=C\NCc1ccc2c(c1)OCO2)c1nc2ccccc2[nH]1 . Reported GI50: 57.3 µM (inactive)

Short answer for CC(C)(C)c1ccc(O)c(C(c2ccc([N+](=O)[O-])cc2)c2cc(C(C)(C)C)ccc2O)c1 : GI50 was 1.85 µM (inactive)

GI50 measured on O=C1c2scc(-c3ccc(F)cc3)c2-n2cccc21 = 39.4 µM (inactive)

Documented GI50 of CCOC(=O)C(C)(C)Oc1ccc2c(=O)cc(-c3ccc(Cl)cc3)oc2c1 : > 100 µM (inactive)

The reported GI50 of the molecule O=C(O)CN(CC(=O)O)C1CCCCC1N1CC(=O)OC(=O)C1 (stereo not given) was > 100 µM (inactive)

Record summary for CC(C)CC(N)C(=O)Nc1ccc2ccccc2c1 (stereo not given) : reported GI50 = 9.4 µM (inactive)

Reported GI50 ( COC1OC(=O)C(OC)C(OC)C1OC (stereo not given) ) = > 100 µM (inactive)

molecule O=C1N2Cc3c4ccc5c3CN3C(=O)N6Cc7c(ccc(c7CN1C6(c1ccccc1)C23c1ccccc1)OCCOCCNCCOCCO4)OCCOCCNCCOCCO5 (stereo not given) , GI50 observed: > 100 µM (inactive)

Sample COC(=O)C1=C(OC(=O)c2ccccc2)C(C(=O)OC)[C@@]2(O)[C@@H](C(=O)OC)[C@H](C)C[C@@H]1[C@@H]2C(=O)OC (stereo not given in full) ; GI50 observed: 31.6 µM (inactive)

Record O=[N+]([O-])c1ccc(Cl)c2c([N+](=O)[O-])cccc12 , field GI50: 6.22 µM (inactive)

Memo: CN(C)CCn1cnc2sc3ccccc3c21 , reported GI50: > 100 µM (inactive)

Note to self: GI50 recorded for COc1cc2c(cc1OC)C1Cc3sccc3CN1CC2 (stereo not given) was > 100 µM (inactive)

Kindly note the recorded GI50 for Cc1ccc(S(=O)(=O)N/N=C\c2c3ccccc3[n+]([O-])c3ccccc23)cc1 , which is 10.8 µM (inactive)

The molecule listed as COc1cc2c(cc1-c1coc3cc(OCC=C(C)C)ccc3c1=O)OCO2 has a reported GI50 of 13.5 µM (inactive)

Kindly note the recorded GI50 for CC(=O)OC(=C(C#N)C#N)c1nccnc1C(C)=O , which is > 20 µM (inactive)

Entry NS(=O)(=O)c1ccc(NCc2cccc3c(=O)c4ccc(Cl)cc4oc23)cc1 , GI50 reported as > 95.9 µM (inactive)

* * *

System: LOX IMVI
RUN_DESCRIPTION: NCI tumour cell line growth inhibition, 48 h
Calls of active or inactive are those of the source. Cut-off read from the data, not from the text of the source: active = GI50 up to about 1.1 µM and inactive = higher.
MEASURED_QUANTITY: GI50

The compound identified as CC1(C)CC(C)(C)CC(O)(C2(O)CC(C)(C)CC(C)(C)C2)C1 registered its GI50 at > 100 µM (inactive)

The compound identified as CCOC(=O)N1C/C(=C\c2ccc(N(C)C)cc2)C(=O)/C(=C/c2ccc(N(C)C)cc2)C1 registered its GI50 at > 100 µM (inactive)

What the record says about COC(=O)C(Cc1nc2ccccc2nc1O)C(=O)C(=O)Nc1ccc([N+](=O)[O-])cc1[N+](=O)[O-] (stereo not given) : GI50 is 20.9 µM (inactive)

GI50 reported for this compound NC(=S)N/N=C(/CC(=O)c1ccccc1)C(=O)Nc1ccc(Cl)c(Cl)c1 : 74.3 µM (inactive)

The compound identified as COc1cc(S(=O)(=O)N/N=C/C=C/c2ccccc2)c(OC)cc1NC(C)=O registered its GI50 at 15.5 µM (inactive)

Briefly, GI50 measured for N#CC(C(=O)c1ccccc1F)c1nc2cc(C(F)(F)F)ccc2s1 (stereo not given) : 17.6 µM (inactive)

The compound listed as COc1cc(/C=C2/C(=O)N(C(=O)c3ccccc3O)N=C2C)cc(OC)c1OC has a reported GI50 of 2.09 µM (inactive)

Value of measured GI50 for the entry O=c1c(Cc2ccc(Cc3c(O)oc4ccccc4c3=O)cc2)c(O)oc2ccccc12 : > 100 µM (inactive)

The reported value for O=C1NC(N2CCCC(CO)C2)=N/C1=C\c1ccccc1 (stereo not given) in terms of GI50 is > 100 µM (inactive)

In plain terms, Oc1ccc2ccccc2c1-c1c(Nc2ccccc2)ccc2ccccc12 has a documented GI50 of 19.4 µM (inactive)

* * *

Tested on: TK-10
RUN_DESCRIPTION: NCI tumour cell line growth inhibition, 48 h
Activity calls are given as the source filed them. No stated cut-off is given here; in the data, active = GI50 up to about 1.1 µM and inactive = higher.
Give GI50 for every item shown.

Reported GI50 for N#CN1CCC=C(c2cc3ccccc3[nH]2)C1 was > 448 µM (inactive)

Reported GI50 for Nc1nc(Cl)c(N)c(NCC2(CO)CC(CCCc3ccccc3)C2)n1 (configuration not stated) was 56.2 µM (inactive)

# GI50 (compound: CCN(C(=N)C#N)c1ccccc1 ) is > 100 µM (inactive)

The compound listed as CC(=O)CCn1c(=S)sc2ccccc21 shows GI50 equal to > 100 µM (inactive)

GI50 for O=c1c2nn[nH]c2nc2n1CC(c1ccccc1)S2 (configuration not stated) is > 100 µM (inactive)

compound COc1ccccc1NC(=O)CSC(N)=O , GI50 observed: > 100 µM (inactive)

Quick note, GI50 for N#CC(C(=O)c1ccccc1F)c1nc2cc(C(F)(F)F)ccc2s1 (configuration not stated) landed at 30.8 µM (inactive)

* * *

System: HOP-62
RUN_DESCRIPTION: NCI tumour cell line growth inhibition, 48 h
Activity calls are given as the source filed them. Rule as the data show it: active = GI50 up to about 1.1 µM and inactive = higher.
MEASURED_QUANTITY: GI50

Form: compound = COc1ccc(C2=C(Cl)c3cc(OC)c(OC)cc3C2=O)cc1OC ; GI50 = 15.3 µM (inactive)

Sample Cc1ccc(NC(=O)C(=O)C(C(=O)c2ccc3ccccc3c2)C2OC(=O)c3ccccc32)cc1C (configuration not stated) ; GI50 observed: 14.7 µM (inactive)

Lookup result for CCCCCCCCCCCCCCNCC(OC)OC ; measured GI50: 16.7 µM (inactive)

Entry O=C1C(Cl)N(c2ccc(Cl)cc2Cl)C1c1c[nH]c2ccccc12 (configuration not stated) , GI50 reported as > 100 µM (inactive)

Reported GI50 ( O=C(NN1C(=O)CSC1c1ccco1)c1ccncc1 (configuration not stated) ) = > 100 µM (inactive)

For reference, reported GI50 for CCOC(=O)c1c2c(n(Cc3ccccc3)c1C)C(=O)C(=O)c1ccccc1-2 stands at 0.238 µM (active)

For CCN(CC)c1ccc(/N=N\c2ccc(-c3nc4ccc[n+](C)c4s3)cc2)cc1 the compound record lists GI50 as 17.3 µM (inactive)

Lookup result for C[n+]1cn(C2=C([N-]S(=O)(=O)c3ccccc3)C(=O)c3ccccc3C2=O)c2ccccc21 ; measured GI50: 47.9 µM (inactive)

# compound COc1ccc(/C=N/CCC/N=C/c2ccc(OC)cc2O)c(O)c1 ; its GI50 = > 100 µM (inactive)

The compound O=C(NCCNCCO)N/N=C/c1ccc([N+](=O)[O-])cc1 showed GI50 equal to > 100 µM (inactive)

Looking up O=[N+]([O-])c1ccc(O)c(/C=N/c2nc(-c3ccccc3)cs2)c1 , I see its GI50 listed as 26.7 µM (inactive)

In plain terms, C=CCO[C@]1(CC=C)C(=O)C(=O)OC1C1COC(C)(C)O1 (some centres not stated) has a documented GI50 of > 100 µM (inactive)

Item: c1ccc(C2=NOC3COc4ccccc4OCC23)cc1 (configuration not stated) | GI50: > 100 µM (inactive)

Form: compound = C=CC1C(OC2OC(CO)C(O)C(O)C2O)OC=C(C(=O)OC)C1CC1CC(=O)CC(CCc2ccc(O)cc2)O1 (configuration not stated) ; GI50 = > 100 µM (inactive)

The value of GI50 measured for the compound COC(=O)c1cc2c(o1)Sc1ccccc1NC2=O turned out to be 52.1 µM (inactive)

Documented GI50 of COc1cc(/C=C/C=C2\CC(C)C/C(=C\C=C\c3ccc(O)c(OC)c3)C2=O)ccc1O (configuration not stated) : 17.4 µM (inactive)

The compound identified as c1ccc(CN(Cc2ccccn2)Cn2cccn2)nc1 registered its GI50 at > 100 µM (inactive)

Entry under test: Cn1ccnc1Sc1ccc(/C=N/NC(=O)c2ccccc2O)cc1[N+](=O)[O-] . Its GI50 was 73.6 µM (inactive)

Input Cn1cc(NC(=O)c2cc(NC(=O)CCCCCCCC(=O)Nc3cc(C(=O)Nc4cc(C(=O)NCCC(=N)N)n(C)c4)n(C)c3)cn2C)cc1C(=O)NCCC(=N)N . Output GI50: > 100 µM (inactive)

// sample CN1N=C(c2ccncc2)OC1c1ccccc1F (configuration not stated) , its GI50 was > 100 µM (inactive)

So, c1ccc2c(c1)ccc1nc(-c3ccc4c(c3)OCO4)c3c(c12)CCC3 ? Its GI50 was > 100 µM (inactive)

Record summary for CCOC(=O)C(=O)Nc1c(C)cccc1CC : reported GI50 = > 100 µM (inactive)

The reported value for NC(CCc1nc(-c2ccc(Cl)cc2)cs1)C(=O)O (configuration not stated) in terms of GI50 is > 100 µM (inactive)

Lab book: GI50 of N#C[BH2-][n+]1ccc(C(=O)NNC(c2ccccc2)C(F)(F)F)cc1 (configuration not stated) noted as 97.7 µM (inactive)

The recorded GI50 for entry C/C(=N\Nc1nc2ccccc2o1)c1ccc2ccccc2n1 equals 4.53 µM (inactive)

Briefly, GI50 measured for Oc1ccc2ccccc2c1-c1c(Nc2ccccc2)ccc2ccccc12 : 16.1 µM (inactive)

Query CNS(=O)(=O)NNS(=O)(=O)c1ccc(C)cc1 yields GI50 of > 100 µM (inactive)

Lab book: GI50 of COC(=O)C1(O)c2ccccc2N=C2C(=O)c3ccccc3N21 (configuration not stated) noted as > 100 µM (inactive)

// recorded GI50 for Cc1oc2c(C)c3oc(=O)cc(C)c3cc2c1CN1C(=O)C2OCCOCCOCCOCCOCCO[C@H]2C1=O (some centres not stated) : > 100 µM (inactive)

Entry COc1cccc(C2c3cc4c(cc3OC(N3CCOCC3)C2C)OCO4)c1OC (configuration not stated) ; GI50 = 11.4 µM (inactive)

Value of measured GI50 for the entry Cc1ccc(S(=O)(=O)Oc2ccc(OS(=O)(=O)c3ccc(C)cc3)c3c2C(=O)c2ccccc2C3=O)cc1 : 37.8 µM (inactive)

GI50 reported for this compound Cn1/c(=N\S(=O)(=O)c2ccccc2)n(S(=O)(=O)c2ccccc2)c2ccccc21 : 38.8 µM (inactive)

Notebook: O=C1/C(=C/c2cccc([N+](=O)[O-])c2)COc2ccccc21 , GI50 read as 11 µM (inactive)

Looking up CC(C)(C)OC(=O)NCCCCC1NC(=O)[C@@H]2Cc3c([nH]c4ccccc34)C(c3ccccc3)N2C1=O (some centres not stated) , I found its GI50 recorded as 30.3 µM (inactive)

Short answer for Cc1cc(-c2ccc(Cl)cc2)c(C#N)c(=S)n1C1OC(CO)C(O)C(O)C1O (configuration not stated) : GI50 was > 100 µM (inactive)

# GI50 (compound: O=P(O)(O)C=C=C1CCCCC1 ) is > 100 µM (inactive)

Lookup result for CCOC(=O)c1c(N2CCCC2)nsc1Nc1ccc(F)cc1 ; measured GI50: 63.5 µM (inactive)

Lookup result for COc1ccc(C(=O)c2c(-c3ccccc3NC(=O)C(F)(F)F)[nH]c3ccccc23)cc1 ; measured GI50: 9.16 µM (inactive)

Record CSc1nc(-c2ccccc2)[nH]c(=O)n1 , field GI50: > 100 µM (inactive)

Per the records, this compound ( CC(C)[C@H](NC(=O)[C@H](N)Cc1ccc(N(CCCl)CCCl)cc1)C(=O)O ) has GI50 equal to > 100 µM (inactive)

Just so you know, measured GI50 for O=C(/N=C(/Nc1ccccc1)SCS/C(=N\C(=O)c1ccco1)Nc1ccccc1)c1ccco1 came out at 19.5 µM (inactive)

Field GI50 (entry CC1(C)OCC2OC3(c4nc(C#N)c(N)o4)OC(C)(C)OC3C2O1 (configuration not stated) ) reads > 100 µM (inactive)
